This listing pairs compounds with measured %Inh.
# Tested on: IKK-epsilon
# Construct: gene IKBKE
# Measurement parameters: concentration: 1 μM, replicates: in singlicate; n = 1
Measured parameter: %Inh (%)

> print(dat)
                               given.smiles  unit.of.measure  value.observed
1  CCc1nc(-c2cccc(C)c2)c(-c2ccnc(NC(=O)c3ccccc3)c2)s1                %             100
2  Cl.c1ccc(Cn2ccc3cc(Nc4ncnc5ccccc45)ccc32)cc1                %              24
3  Cl.O=S(=O)(c1cccc(F)c1)c1ccc(Nc2ncnc3cc(Br)sc23)cc1Cl                %               0
4    Oc1ccc2ncnc(Nc3ccc(OCc4ccccc4)cc3)c2c1                %               0
5  CNc1nccc(-c2c(-c3ccc(F)cc3)ncn2CCCN2CCOCC2)n1                %               0

====

# Tested on: ERK3
# Construct: gene MAPK6
# Measurement parameters: concentration: 1 μM, replicates: in singlicate; n = 1
This listing pairs molecules with measured %Inh.
Measured parameter: %Inh (%)

> print(dat)
                               given.smiles  target.or.test.system  measured.parameter  value.observed
1  O=C(Nc1n[nH]c2nc(-c3ccco3)c(Br)cc12)c1ccc(CN2CCCC2)cc1.O=C(O)[C@H](O)[C@@H](O)C(=O)O                   ERK3                %Inh               0
2  Nc1nccc2scc(-c3ccc4c(c3)CCN4C(=O)Cc3cc(F)ccc3F)c12                   ERK3                %Inh               4
3  CS(=O)(=O)CCNCc1ccc(-c2ccc3ncnc(Nc4ccc(OCc5ccccc5)c(Cl)c4)c3c2)o1.Cl                   ERK3                %Inh               0
4  Fc1cccc(COc2ccc(Nc3ncnc4nn5ccccc5c34)cc2Cl)c1                   ERK3                %Inh               0
5  Cl.Fc1ccccc1COc1ccc(Nc2ncnc3ccc(-c4nnc(C(F)(F)F)o4)cc23)cc1Cl                   ERK3                %Inh               7
6  Cc1ccc(O)cc1Nc1cc(C(F)(F)F)nc2ccc(-c3ccncc3)cc12                   ERK3                %Inh               9
7                CCn1c(-c2ccncc2)nc2cnccc21                   ERK3                %Inh               0
8              Nc1n[nH]c2nnc(-c3ccccc3)cc12                   ERK3                %Inh              16

====

This listing pairs molecules with measured %Inh.
# Tested on: DYRK1A
# Measurement parameters: concentration: 1 μM, replicates: in singlicate; n = 1
Measured parameter: %Inh

> print(dat)
                               given.smiles  value.observed
1  COC(=O)c1cccc(NC(=O)NCCNc2ccnc(Nc3ccc(F)cc3)n2)c1              0%
2  Fc1cccc(COc2ccc(Nc3ncnc4nn5ccccc5c34)cc2Cl)c1              8%
3  CCc1nc(-c2cccc(C)c2)c(-c2ccnc(NC(=O)c3ccccc3)c2)s1             18%
4  Cc1ccc(NC(=O)c2cccc(C#N)c2)cc1-c1ccc(C(=O)Nc2ccncc2)cc1             31%
5  Nc1nccc2scc(-c3ccc4c(c3)CCN4C(=O)Cc3cc(F)ccc3F)c12              0%

====

# Tested on: NIK;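 further: kd values determined as follow-up on hits from a single-replicate KINOMEscan panel screen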
# Construct: gene MAP3K14
pKd: −log10 of the molar value.
Measured parameter: pKd

> print(dat)
                               given.smiles  value.observed
1  CS(=O)(=O)CCNCc1ccc(-c2ccc3ncnc(Nc4ccc(OCc5ccccc5)c(Cl)c4)c3c2)o1.Cl          < 5.00

====

# System: KIT
# Measurement parameters: concentration: 1 μM, replicates: in singlicate; n = 1
Entries whose %Inh is below 20% take Met; entries at or above 20% take Not met.

> print(dat)
                               given.smiles  class.assignment
1  Fc1cccc(COc2ccc(Nc3ncnc4sc(-c5ccc[nH]5)cc34)cc2Cl)c1               Met
2  Cl.O=S(=O)(c1cccc(F)c1)c1ccc(Nc2ncnc3cc(Br)sc23)cc1Cl           Not met
3  Fc1cccc(COc2ccc(Nc3ncnc4cc[nH]c34)cc2Cl)c1           Not met
4  Nc1nccc2scc(-c3ccc4c(c3)CCN4C(=O)Cc3cc(F)ccc3F)c12           Not met
5  Cc1ccc(NC(=O)c2cccc(C#N)c2)cc1-c1ccc(C(=O)Nc2ccncc2)cc1           Not met

====

# Tested on: GAK
# Measurement parameters: concentration: 1 μM, replicates: in singlicate; n = 1
This listing pairs compounds with measured %Inh.
Measured parameter: %Inh (%)

> print(dat)
                               given.smiles  unit.of.measure  value.observed
1  CN1CCC(n2cnc(-c3ccc(F)cc3)c2-c2ccnc(NC3CCNCC3)n2)CC1                %               0
2  Clc1ccc(-c2cc(-c3c[nH]nc3-c3ccccn3)ccn2)cc1                %              74
3  COc1cc2ncnc(Nc3ccc(OCc4ccccc4Br)c(Cl)c3)c2cc1OC.Cl                %               0
4  CS(=O)(=O)CCNCc1ccc(-c2ccc3ncnc(Nc4ccc(OCc5ccccc5)c(Cl)c4)c3c2)o1.Cl                %               0

====

# Test system: CIT
# Measurement parameters: concentration: 1 μM, replicates: in singlicate; n = 1
Measured parameter: %Inh (%)

> print(dat)
                                   compound  unit.of.measure  value.observed
1  COc1cc2ncnc(Nc3ccc(OCc4ccccc4Br)c(Cl)c3)c2cc1OC.Cl [GI261590]                %              29
2  FC(F)(F)c1ccc(-c2cc(-c3c[nH]nc3-c3ccccn3)ccn2)cc1 [GW599550]                %              37
3  CC(C)N1CCC(n2cnc(-c3ccc(F)cc3)c2-c2ccnc(N)n2)CC1 [SB-223132]                %              69
4  CNc1nccc(-c2c(-c3ccc(F)cc3)ncn2CCCN2CCOCC2)n1 [SB-222516]                %               0
5   Clc1cc(Nc2ncnc3cc[nH]c23)ccc1OCc1ccccn1                %              18
6  CN1CCC(n2cnc(-c3ccc(F)cc3)c2-c2ccnc(NC3CCNCC3)n2)CC1 [SB-229482]                %               2
7  COc1ccc(Nc2nccc(N3CCC(NC(=O)Nc4ccc5c(c4)OCO5)C3)n2)cc1 (stereo not drawn) [GSK1379745]                %               0
8  O=C(NCCCN1CCCC1=O)c1cnc(NCc2cc(Cl)ccc2Cl)nc1NC1CCNCC1                %               0
9  Cc1ccc(O)cc1Nc1cc(C(F)(F)F)nc2ccc(-c3ccncc3)cc12 [GW630823]                %               0

====

This listing pairs compounds with measured %Inh.
# Test system: CDK4-cyclinD1
# Measurement parameters: concentration: 1 μM, replicates: in singlicate; n = 1
Measured parameter: %Inh (%)

> print(dat)
                                   compound  unit.of.measure  value.observed
1  Fc1ccc(-c2ncn(CCCNCc3ccccc3)c2-c2ccncc2)cc1                %               0
2  CC(C)(C)OC(=O)NC1CCCN(c2cc(-c3ccc4c(N)n[nH]c4c3)nc(N)n2)C1 (stereo not drawn)                %               0
3      Nc1nc(-c2cccnc2)c(-c2ccnc3ccccc23)s1                %              16
4  COc1ccc(Nc2nccc(N3CCC(NC(=O)Nc4ccc5c(c4)OCO5)C3)n2)cc1 (stereo not drawn)                %              42
5  c1ccc(-c2ccc3c(-c4ccnc(Nc5ccc6c(c5)OCCO6)n4)cnn3n2)cc1                %               0
6  Fc1ccc(Nc2nccc(-c3c(-c4ccc(Cl)cc4)nn4ncccc34)n2)cc1F                %              62
7  CN1CCC(n2cnc(-c3ccc(F)cc3)c2-c2ccnc(NC3CCNCC3)n2)CC1                %              33
8              Nc1n[nH]c2nnc(-c3ccccc3)cc12                %               0
9  CSc1nn2c(=O)cc(N3CCOCC3)nc2n1Cc1cccc(Cl)c1Cl                %               0
